target: recombinant MAO-A from human (Homo sapiens, UniProt P21397); test: SPR affinity detection with MAO-A
Sequence (P21397 whole entry): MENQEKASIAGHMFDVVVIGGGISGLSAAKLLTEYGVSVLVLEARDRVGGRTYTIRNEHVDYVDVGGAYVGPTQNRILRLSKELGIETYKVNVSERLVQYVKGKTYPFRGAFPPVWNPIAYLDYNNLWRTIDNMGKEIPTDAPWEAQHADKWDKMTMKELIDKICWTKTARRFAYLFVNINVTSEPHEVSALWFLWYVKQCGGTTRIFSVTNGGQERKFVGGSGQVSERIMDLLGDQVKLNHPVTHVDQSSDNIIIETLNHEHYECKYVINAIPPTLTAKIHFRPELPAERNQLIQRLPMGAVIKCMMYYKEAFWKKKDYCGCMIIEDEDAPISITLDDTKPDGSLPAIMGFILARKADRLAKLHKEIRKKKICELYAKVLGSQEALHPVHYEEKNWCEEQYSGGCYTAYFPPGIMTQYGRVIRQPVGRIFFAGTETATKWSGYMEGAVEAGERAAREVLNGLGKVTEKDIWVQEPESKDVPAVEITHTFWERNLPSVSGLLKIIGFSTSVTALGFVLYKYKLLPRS
pKd: −log10 of the molar value.
recorded metric: pKd

[[record]]
test_smiles = "C=CCc1ccc(OC)cc1"
tested_target = "recombinant MAO-A from human (Homo sapiens, UniProt P21397)"
measured_result = 5.63

[[record]]
test_smiles = "C=CCc1ccc(OC)c(OC)c1"
tested_target = "recombinant MAO-A from human (Homo sapiens, UniProt P21397)"
measured_result = 5.23

[[record]]
test_smiles = "C=CCc1cc(OC)c(OC)c(OC)c1"
tested_target = "recombinant MAO-A from human (Homo sapiens, UniProt P21397)"
measured_result = 5.33

